# system_under_test: ligand binding domain of human RORγ (Homo sapiens)
# Construct: host or cells: HEK293t
# Sequence (P51449 269-508 limits assumed): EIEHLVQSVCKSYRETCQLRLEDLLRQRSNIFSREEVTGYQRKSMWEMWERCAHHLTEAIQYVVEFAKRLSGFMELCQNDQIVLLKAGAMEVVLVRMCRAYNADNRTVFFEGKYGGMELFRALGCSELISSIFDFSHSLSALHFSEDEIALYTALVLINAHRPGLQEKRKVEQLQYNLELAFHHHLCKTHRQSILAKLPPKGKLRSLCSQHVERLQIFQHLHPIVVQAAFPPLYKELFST
# test_summary: RORγ Reporter Assay (Gal4)
# Type: cell-based
# test_settings: HEK-293T, 1 μM test compound, HEK293t RORγ reporter cells, 24 hour; read-out: Gal4 activity range @ 1 μM (% inhibition)
What inhibition at 1 µM was measured for each of the following?

# inhibition at 1 µM (molecule: CC(c1ccc(C(F)(F)F)cc1)N(c1ncnc(NCc2ccc(NS(=O)(=O)C(F)(F)F)cc2)c1F)C1CC1 (stereo not shown) [Example A74] ) is > 50%

# inhibition at 1 µM (molecule: O=S1(=O)CCC(O)(CNc2ncnc(N(Cc3ccc(C(F)(F)F)cc3)C3CC3)c2F)CC1 [Example A8] ) is > 80%

# inhibition at 1 µM (molecule: O=S(=O)(NC1CC1)c1ccc(CNc2ncnc(N(Cc3ccc(C(F)(F)F)cc3)C3CC3)c2F)cc1 [Example A9] ) is > 80%

# inhibition at 1 µM (molecule: NC(=O)Cc1ccc(CNc2ncnc3c2ccn3Cc2ccc(C(F)(F)F)cc2)cc1 [Example A164] ) is > 50%

# inhibition at 1 µM (molecule: NC(=O)Cc1ccc(CNc2ncnc(N(Cc3ccc(C(F)F)nc3)C3CC3)c2F)cc1 [Example A179] ) is > 80%

# inhibition at 1 µM (molecule: CS(=O)(=O)N1CC2CCC(Nc3ncnc(N(Cc4ccc(C(F)(F)F)cc4)C4CC4)c3F)C2C1 (stereo not shown) [Example A175] ) is > 80%

# inhibition at 1 µM (molecule: CN(Cc1ccc(OC(F)(F)F)cc1)c1ncnc(NCc2ccc(CC(N)=O)cc2)c1F [Example A20] ) is > 50%

# inhibition at 1 µM (molecule: NC(=O)Cc1ccc(CNc2ncnc(N(Cc3ccc(C(F)(F)F)cc3)C3CCC3)c2F)cc1 [Example A15] ) is > 80%

# inhibition at 1 µM (molecule: C[S+]([O-])c1ccc(CNc2ncnc(N(Cc3ccc(C(F)(F)F)cc3)C3CC3)c2F)cc1 (stereo not shown) [Example A76] ) is > 80%

# inhibition at 1 µM (molecule: NC(=O)Cc1ccc(CNc2ncnc(N(Cc3ccc(C(F)(F)F)cc3)C3CC3)c2F)cn1 [Example A78] ) is > 80%

# inhibition at 1 µM (molecule: NC(=O)Cc1ccc(CNc2ncnc(N(Cc3ccc(C(F)(F)F)cc3)CC3CC3)c2F)cc1 [Example A18] ) is > 80%

# inhibition at 1 µM (molecule: N#CCc1ccc(CNc2ncnc(N(Cc3ccc(C(F)(F)F)cc3)C3CC3)c2F)cc1 [Example A14] ) is > 80%

# inhibition at 1 µM (molecule: CC(c1ccc(C(F)(F)F)nc1)N(c1ncnc(NCc2ccc(CC(N)=O)cc2)c1F)C1CC1 (stereo not shown) [Example A103] ) is > 80%

# inhibition at 1 µM (molecule: CCCn1nc(C)cc1CN(C)c1ncnc(NCc2ccc(CC(=O)O)cc2)c1F [Example A150] ) is > 20%

# inhibition at 1 µM (molecule: NC(=O)CC1CC(CNc2ncnc(N(Cc3ccc(C(F)(F)F)cc3)C3CC3)c2F)C1 (stereo not shown) [Example A95] ) is > 80%

# inhibition at 1 µM (molecule: NC(=O)Cc1ccc(CNc2ncnc(N(Cc3cccc(C(F)(F)F)c3)C3CC3)c2F)cc1 [Example A101] ) is > 50%
